Item-by-item account of OD450
- Tested on: T1, Peptide 8: Biotin-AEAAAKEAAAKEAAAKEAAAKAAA-Tyr-acid (N-terminal biotin; C-terminal acid; no PC)
- T1 construct: control peptide without PC
- T1 peptide: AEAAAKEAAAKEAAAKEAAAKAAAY
- Assay overview: scFv ELISA
Property measured: OD450 (OD450)

Binder: PcOxP_DB01_E01 (scFv, V domains shown, scFv in periplasmic extract) VH: EVQLLESGGGLVQPGGSLRLSCAASGFTSSDFYMEWVRQAPGKGLEWVAASRNKANDYTTEYADSVKGRFTISRDNSKNTLYLQMNSLRAEDTAVYYCARDYYGSSYWYFDVWGQGTLVTVSS VL: DIVMTQSPDSLAVSLGERATINCTASESLYSSKHKVHYLAWYQQKPGQPPKLLIYGASNRVIGVPDRFSGSGSGTDFTLTISSLQAEDVAVYYCANFYSYPLTFGGGTKVEIK
Unit label: OD450
Value: 0.04
--
Binder: PcOxP_DB03_H07 (scFv, V domains shown, scFv in periplasmic extract) VH: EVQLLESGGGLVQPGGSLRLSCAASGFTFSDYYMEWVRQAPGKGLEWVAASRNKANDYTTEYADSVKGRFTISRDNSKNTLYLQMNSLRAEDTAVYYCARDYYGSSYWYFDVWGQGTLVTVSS VL: DIQMTQSPSSLSASVGDRVTITCTASESLYSSKHKVHYLAWYQQKPGKAPKLLIYGASNRDIGVPSRFSGSGSGTDFTLTISSLQPEDFATYYCGQFYSYPLTFGGGTKVEIK
Unit label: OD450
Value: 0.05
--
Binder: PcOxP_DB02_A04 (scFv, V domains shown, scFv in periplasmic extract) VH: EVQLLESGGGLVQPGGSLRLSCAASGDTFSDFYMEWVRQAPGKGLEWVAASRNKWNDYTTEYADSVKGRFTISRDNSKNTLYLQMNSLRAEDTAVYYCARDYYGSSYWYFDVWGQGTLVTVSS VL: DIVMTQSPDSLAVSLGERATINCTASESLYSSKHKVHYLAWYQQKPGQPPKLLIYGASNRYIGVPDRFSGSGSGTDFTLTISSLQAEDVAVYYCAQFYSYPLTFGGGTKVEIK
Unit label: OD450
Value: 0.04
--
Binder: PcOxP_DB01_D04 (scFv, V domains shown, scFv in periplasmic extract) VH: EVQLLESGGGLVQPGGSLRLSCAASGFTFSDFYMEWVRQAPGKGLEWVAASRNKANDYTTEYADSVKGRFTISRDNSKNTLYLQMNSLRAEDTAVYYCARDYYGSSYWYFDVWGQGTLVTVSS VL: DIVMTQSPDSLAVSLGERATINCTASESLWSSKHKVHYLAWYQQKPGQPPKLLIYGASNRYIGVPDRFSGSGSGTDFTLTISSLQAEDVAVYYCAQFYSYPLTFGGGTKVEIK
Unit label: OD450
Value: 0.06
--
Binder: PcOxP_DB01_F08 (scFv, V domains shown, scFv in periplasmic extract) VH: EVQLLESGGGLVQPGGSLRLSCAASGFTFSDGYMEWVRQAPGKGLEWVAASRNKWNDYTTEYADSVKGRFTISRDNSKNTLYLQMNSLRAEDTAVYYCARDYYGSSYWYFDVWGQGTLVTVSS VL: DIVMTQSPDSLAVSLGERATINCTASESLYSSKHKVHYLAWYQQKPGQPPKLLIYGASNRYSGVPDRFSGSGSGTDFTLTISSLQAEDVAVYYCAQFYSYPLTFGGGTKVEIK
Unit label: OD450
Value: 0.04
